# Species: Rattus norvegicus
# measurement description: Open TG-GATES - Regimen: Daily Repeat
# Assay type: toxicity, organism-based, Sprague-Dawley
# Set-up: regimen Daily Repeat, gender Male, age 6 weeks
# recorded conditions: in vivo, po, 100 mg/kg, […], tissue Blood, route gavage, dose level Low, time 7 day
property measured: APTT (s)
Reply numerically in s, unit not repeated.

Recorded result, O=C(O)c1ccccc1Nc1ccccc1 [FENAMIC ACID] , APTT: 16

Recorded result, CC(S)C(=O)NCC(=O)O (centres undefined) [TIOPRONIN] , APTT: 22.4

Recorded result, CC(=O)[C@@]1(O)CC[C@H]2[C@@H]3C=C(Cl)C4=CC(=O)CC[C@]4(C)[C@H]3CC[C@@]21C [CHLORMADINONE] , APTT: 27.7

Recorded result, CCCCNC(=O)NS(=O)(=O)c1ccc(C)cc1 [TOLBUTAMIDE] , APTT: 16.9
